Consider the following compounds; for each one, report its growth.
# Tested on: HCT-116 colon
# Test: NCI-60 one-dose screen, 48 h (100 = growth as untreated, 0 = no growth, -100 = all killed)
# Setup conditions: 10 µM
The panel holds about 83,000 compounds, 20% with a hit somewhere; the sample as a whole holds those more often.
Write the answer as a number in %, unit excluded.

stdin: Need growth, item Cc1ccc2c(c1)C(=O)/C(=C/c1c[nH]c3ccccc13)S2
stdout: 14.2

stdin: Likewise for O=C(CC(=O)Nc1ccc(Oc2ncnc3scc(Nc4n[nH]c(=S)s4)c23)cc1)Nc1ccc(Cl)cc1 ?
stdout: 92.5

stdin: Likewise for CC1(C)CC(=O)C2=C(C1)N(Cc1ccc(C(=O)O)cc1)C1=C(C(=O)CC(C)(C)C1)C2c1ccc(Cl)cc1 ?
stdout: 106

stdin: Likewise for O=C(c1ccccc1)c1ccc2nc(-c3ccccc3Br)[nH]c2c1 ?
stdout: -38.8

stdin: Likewise for CC1(C)CC[C@]2(C(=O)O)CC[C@]3(C)C(=CCC4[C@@]5(C)C[C@@H](O)[C@@H]6OC(c7cccc(F)c7)OC[C@@]6(C)C5CC[C@]43C)C2C1 (stereo partly specified) ?
stdout: 9.3

stdin: Likewise for O=C(Nc1ccc(OCc2ccc(Cl)cc2)cc1)Nc1ccc(Cl)c(C(F)(F)F)c1 ?
stdout: 3.96

stdin: Likewise for Cn1cc(/C=C(/SS/C(=C/c2cn(C)c3cccc(C(=O)O)c23)C(=O)O)C(=O)O)c2c(C(=O)O)cccc21 ?
stdout: 118

stdin: Likewise for COc1cccc(C(=O)CSc2nc(-c3ccc(OCc4ccccc4)c(OC)c3)c(C#N)c(=O)[nH]2)c1 ?
stdout: 99.6

stdin: Likewise for O=C(CSc1nc2ccccc2c(=O)n1-c1ccc(Cl)cc1)Nc1ccc(-c2nc3ccc([N+](=O)[O-])cc3[nH]2)cc1 ?
stdout: 19.1

stdin: Likewise for COc1cc2oc(-c3cccc(C(=O)Nc4ccc(Cl)cc4)c3)cc(=O)c2c(OCCN)c1OC ?
stdout: -90.3

stdin: Likewise for COC(=O)CNC(=O)COc1c(OC)c(OC)cc2oc(-c3cccc(C(=O)Nc4ccc(Cl)cc4)c3)cc(=O)c12 ?
stdout: 43.8

stdin: Likewise for COc1ccc(NCc2cn(-c3ccc(C(=O)O)cc3)nc2-c2ccc(F)cc2)cc1C(F)(F)F ?
stdout: 39.5

stdin: Likewise for CC1[C@H]2[C@H](C[C@H]3[C@@H]4CC=C5c6sc(Nc7cccc(Cl)n7)nc6CC[C@]5(C)[C@H]4CC[C@@]32C)O[C@]12CC[C@@H](C)CO2 (stereo partly specified) ?
stdout: 76.3

stdin: Likewise for COc1cc(-c2nc3ccc(C)cc3[nH]2)ccc1OCc1nnc(-c2ccccc2Br)o1 ?
stdout: 61

stdin: Likewise for COc1ccc(C(=O)COc2ccc(NC(=O)Nc3ccc(Cl)c(C(F)(F)F)c3)cc2)cc1 ?
stdout: 25.9

stdin: Likewise for COc1cc(C2CC(c3ccc(Oc4ccc(Cl)cc4)cc3)=NN2c2nc(-c3ccc(Cl)cc3)c(C#N)c(N3CCOCC3)n2)cc(OC)c1OC (stereo unspecified) ?
stdout: 106

FYI, the data here is from PubChem BioAssay (NCI).
